# Test Name: Cytotoxicity determination in HepG2.2.15 cells (CCK-8)
# Type: cell-based
# Test Settings: human, 6 days of compound treatment, CCK-8, highest concentration 100 μM
For each record, write down the corresponding CC50 at 6 days.
The reply should be a number in µM, with the unit left off.

Problem: For the compound COC(=O)C1=C(C2CCN(C(=O)CO)CC2)NC(c2nccs2)=NC1c1ccc(F)cc1Cl (single isomer, unassigned) [Compound 122B] , give its measured CC50 at 6 days value.
Result: 31.6

Problem: For the compound CCOC(=O)C1=C(C2CCN(S(=O)(=O)[C@H]3C[C@H](C(=O)O)C3)CC2)NC(c2nccs2)=NC1c1ccc(F)c(F)c1Cl (relative stereo) [Compound 370B] , give its measured CC50 at 6 days value.
Result: 23.2

Problem: For the compound COC(=O)C1=C([C@H]2CCC[C@@H](C(=O)OC)C2)NC(c2nccs2)=NC1c1cccc(F)c1Cl (single isomer, unassigned) [Compound 24Q] , give its measured CC50 at 6 days value.
Result: 3.52

Problem: For the compound COC(=O)C1=C(C2CCCCO2)NC(c2nccs2)=NC1c1ccc(F)cc1Cl (single isomer, unassigned) [Compound 49C] , give its measured CC50 at 6 days value.
Result: 84.6

Problem: For the compound CCOC(=O)C1=C([C@H]2CC[C@H](C(=O)O)CC2)NC(c2nccs2)=NC1c1ccc(F)c(F)c1C (stereo partly drawn) [Compound 154A] , give its measured CC50 at 6 days value.
Result: 30.7

Reference for the values: patent US11639350B2
